# key: entry, value: viability at 1.1 µM
- Tested on: senescent cells
- protocol details: Viability of senescent cells (CellTiter-Glo), Example 17, Table 13
- details: Homo sapiens, read-out: Survival (%)
Note: state the figure and append the unit.

See these solved cases before continuing.
compound	measured attribute	result
CC[C@H]1[C@@H](O)[C@@H]2[C@H](CC[C@]3(C)[C@@H]([C@H](C)CCC(=O)O)CC[C@@H]23)[C@@]2(C)CC[C@@H](O)C[C@@H]12 [LX-9732, Obeticholic Acid]	viability at 1.1 µM	95.7%
Cc1ccccc1CN1C(=O)C2=C(CCN(Cc3ccccc3)C2)N2CCN=C12 [LX-7261, Dordaviprone]	viability at 1.1 µM	63.7%
C#CCC(Cc1cnc2nc(N)nc(N)c2n1)c1ccc(C(=O)N[C@@H](CCC(=O)O)C(=O)O)cc1 (stereo partly shown) [LX-7405, Pralatrexate]	viability at 1.1 µM	100%
Nc1ccc(O)c(C(=O)O)c1 [LX-9118, 5-aminosalicylic acid]	viability at 1.1 µM	102%
CCNCC[C@H](O)CNCCCCNC[C@@H](O)CCNCC [LX-6516, Ivospemin]	viability at 1.1 µM	93.3%
COc1ccccc1OCC(O)CN1CCN(CC(=O)Nc2c(C)cccc2C)CC1 (stereo not shown) [LX-9565, Ranolazine]	viability at 1.1 µM	78.9%

Let us move to another entry and its viability at 1.1 µM.
Q: Data request, read-out viability at 1.1 µM, for Cc1nc(C(=O)NCC(=O)O)c(O)c2ccc(Oc3ccccc3)cc12 [LX-6806, Roxadustat]
Result: 95.4%

====

- Test system: HMGN1 secreted from senescent cells
- protocol details: HMGN1 secretion (ELISA) from doxorubicin-induced senescent cells, Example 17
- Format: cell-based, human
- details: senescent untreated = 100%; 30 μM; 90 μM for LX-5211, 5433, 6530, 9105, 9118, 9321, 9602; 2.4 mM for LX-9336
Quick reference for HMGN1 among some compounds
Number only, in %; omit the unit.

CC(=O)[O-].CC(=O)[O-].CCc1c(CC)c2cc3nc(cnc4cc(OCCOCCOCCOC)c(OCCOCCOCCOC)cc4ncc4nc(cc1[n-]2)C(CCCO)=C4C)C(C)=C3CCCO.O.[Gd+3] 253
O=C1C2=C(CCN(Cc3ccccc3)C2)N2CCN=C2N1Cc1ccc(C(F)(F)F)cc1 267
Nc1cc(COc2c(Cl)cc(C[C@H](N)C(=O)O)cc2Cl)c2oc(-c3ccccc3)nc2c1 241
COC[C@]1(CO)C(=O)[C@H]2CC[N@]1[C@H](C)C2 235

Q: Form field: reported HMGN1 of "CN(CC(=O)Nc1nc2ccc(OC(F)(F)F)cc2s1)C(=O)CNC(=O)CN"
Result: 221

Q: State the recorded HMGN1 for this entry: "CCO[C@@H](Cc1ccc(OCCn2c(C)ccc2-c2ccc(SC)cc2)cc1)C(=O)[O-].CCO[C@@H](Cc1ccc(OCCn2c(C)ccc2-c2ccc(SC)cc2)cc1)C(=O)[O-].[Mg+2]"
Result: 226

====

- Test system: senescent A549 cells
- protocol details: Viability of senescent A549 cells (CellTiter-Glo), Example 18, Table 15
- details: 1.1 μM; doxorubicin-induced senescent A549 cells; 0 μM = 100%
measured attribute: Survival (%)
Hi! Could you send only the number? It should be in %, unit omitted.

compound	unit text	Survival (%)
CCNCc1nc2c(O)c(Cl)cc(Cl)c2c(=O)n1C	%	102.9

Q: I would be grateful if you could share the reported Survival (%) for "O=C1C2=C(CCN(Cc3ccccc3)C2)N2CCN=C2N1Cc1ccc(C(F)(F)F)cc1" .
Result: 53.6

Q: Requested read-out: Survival (%). Entry: "CN(CC(=O)Nc1nc2ccc(OC(F)(F)F)cc2s1)C(=O)CNC(=O)CN"
Result: 93.8

Q: Entry "CN1CCc2c(c3ccccc3n2Cc2ccc(C(=O)NO)cc2)C1" has what Survival (%)?
Result: 97.6

====

- Tested on: senescent cells
- protocol details: Viability of senescent cells (CellTiter-Glo), Example 17, Table 13
- details: 30 μM; doxorubicin-induced senescent cells; 0 μM = 100
Overview of reported Survival (%) across a group of molecules:
All answers are understood in %, so give the number only.

Here's what some known entries look like.
COC[C@]1(CO)C(=O)[C@H]2CC[N@]1[C@H](C)C2 11.7
Nc1cc(COc2c(Cl)cc(C[C@H](N)C(=O)O)cc2Cl)c2oc(-c3ccccc3)nc2c1 11.3
CCO[C@@H](Cc1ccc(OCCn2c(C)ccc2-c2ccc(SC)cc2)cc1)C(=O)[O-].CCO[C@@H](Cc1ccc(OCCn2c(C)ccc2-c2ccc(SC)cc2)cc1)C(=O)[O-].[Mg+2] 21.5

In the following, a different molecule is considered.
Q: Which value of Survival (%) has been reported for "CN(CC(=O)Nc1nc2ccc(OC(F)(F)F)cc2s1)C(=O)CNC(=O)CN" in the records?
Result: 24.3

====

- Test system: naturally aged mice
- protocol details: Anti-aging evaluation in naturally aged mice, Example 31, Table 55;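 further: Vehicle-dosed control mice received solution alone at matching volume, values compare test-compound-treated aged mice against that control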
- Assay type: in vivo, mouse
- details: open field test, untreated = 100%
measured attribute: Open Field Test Time in Center (%)
Express it in %; write the number only.

These solved cases illustrate the format of a correct answer.
compound	measured attribute	measured number
CC1(C)[C@H]2COc3ccc4ccccc4c3[C@H]2N=C2SC(c3ccccc3)=C(c3ccccc3)N21 [LX-5201]	Open Field Test Time in Center	168
CC(=O)N[C@@H](Cc1c[nH]c2ccccc12)C(=O)N[C@@H](CCC(=O)C=[N+]=[N-])C(=O)OC(C)C [LX-3201, Sirpiglenastat]	Open Field Test Time in Center	171
Nc1ccc(O)c(C(=O)O)c1 [LX-9118, 5-aminosalicylic acid]	Open Field Test Time in Center	199
Nc1ccc(/C=C/C(=O)NCc2cc3cc(-c4ccc(C(=O)N5CCC(F)(F)CC5)cc4)cc(-c4ccc(F)cc4)c3o2)cn1 [LX-8812, Padnarsertib]	Open Field Test Time in Center	188
C=C1CC[C@@H]2[C@](C)(CO)[C@H](O)CC[C@@]2(C)[C@@H]1C/C=C1/C(=O)OC[C@H]1O [LX-6800, Andrographolide]	Open Field Test Time in Center	154
C[S+]([O-])CCCCN=C=S (stereo not drawn) [LX-7103, Sulforaphane]	Open Field Test Time in Center	218
COC(=O)[C@H]1Cc2c([nH]c3ccccc23)[C@H](c2ccc(S(C)(=O)=O)cc2)N1C(=O)CCl [LX-5401]	Open Field Test Time in Center	179
CO[C@]1(C(=O)N[C@@H](C)c2ccc(-n3cc(F)cn3)nc2)CC[C@H](c2nc(C)cc(Nc3cc(C)[nH]n3)n2)CC1 [LX-1902, Pralsetinib]	Open Field Test Time in Center	157

Q: Quick one: Open Field Test Time in Center for CCOC(=O)[C@@H](N)CCC(=O)N[C@@H](CSCc1ccccc1)C(=O)N[C@@H](C(=O)OCC)c1ccccc1 [LX-2602, Ezatiostat] ?
Result: 158

Q: So what does the record say about Open Field Test Time in Center for Cn1cc(C[C@@H](N)C(=O)O)c2ccccc21 [LX-8801, Indoximod] ?
Result: 205

Q: Name the recorded Open Field Test Time in Center for CC12CCN(CC1)C(CNC(=O)C(F)(F)F)C2=O (stereo not drawn) [LX-5706] .
Result: 171

Q: # lookup: Open Field Test Time in Center of NC(=O)c1ncn([C@@H]2O[C@H](CO)[C@@H](O)[C@H]2O)n1 [LX-6537, Ribavirin]
Result: 177

====

- Tested on: HMGN1 secreted from senescent A549 cells
- protocol details: HMGN1 secretion (ELISA) from senescent A549 cells, Example 18, Table 14
- Assay type: cell-based, human
- details: doxorubicin-senescent A549, without test compound (DMSO) = 100%; 30 μM (LX-5211, LX-5433, LX-6530, LX-6800, LX-9105, LX-9118, LX-9131, LX-9136, LX-9302, LX-9321, LX-9565, LX-9602 at 90 μM; LX-9336 at 2.4 mM)
measured attribute: HMGN1 (%)
Field: numeric (%). Do not append units.

compound	measured number
COC[C@]1(CO)C(=O)[C@H]2CC[N@]1[C@H](C)C2 [LX-5731]	307
CN1CCc2c(c3ccccc3n2Cc2ccc(C(=O)NO)cc2)C1 [LX-5352, Tubastatin A]	210
O=C1C2=C(CCN(Cc3ccccc3)C2)N2CCN=C2N1Cc1ccc(C(F)(F)F)cc1 [LX-7263]	283

Q: Which HMGN1 value is on record for Nc1cc(COc2c(Cl)cc(C[C@H](N)C(=O)O)cc2Cl)c2oc(-c3ccccc3)nc2c1 [LX-6233, Nanvuranlat] ?
Result: 228

Q: Report HMGN1 for CN(CCOc1ccc(CC2SC(=O)NC2=O)cc1)c1ccccn1 (centres unmarked) [LX-9423, Rosiglitazone] please.
Result: 239

Q: HMGN1 lookup needed for CCO[C@@H](Cc1ccc(OCCn2c(C)ccc2-c2ccc(SC)cc2)cc1)C(=O)[O-].CCO[C@@H](Cc1ccc(OCCn2c(C)ccc2-c2ccc(SC)cc2)cc1)C(=O)[O-].[Mg+2] [LX-9717, Saroglitazar Magnesium] , thanks.
Result: 231

Q: Given CCNCc1nc2c(O)c(Cl)cc(Cl)c2c(=O)n1C [LX-9421] , state its recorded HMGN1.
Result: 284

Q: Given CCCCCCCCCCCCCCCCCCCC(=O)N[C@H]1CC[C@@]2(C)[C@@H](C1)C[C@@H](O)[C@@H]1[C@@H]2C[C@H](O)[C@]2(C)[C@@H]([C@H](C)CCC(=O)O)CC[C@@H]12 [LX-9343, Icomidocholic acid] , state its recorded HMGN1.
Result: 274

Q: Entry under review: CC(=O)[O-].CC(=O)[O-].CCc1c(CC)c2cc3nc(cnc4cc(OCCOCCOCCOC)c(OCCOCCOCCOC)cc4ncc4nc(cc1[n-]2)C(CCCO)=C4C)C(C)=C3CCCO.O.[Gd+3] [LX-5211, Motexafin Gadolinium] . Reported HMGN1?
Result: 262

Q: I have this compound here, CN(CC(=O)Nc1nc2ccc(OC(F)(F)F)cc2s1)C(=O)CNC(=O)CN [LX-6216, Troriluzole] , and I need its recorded HMGN1.
Result: 237

Q: I would be grateful if you could share the reported HMGN1 for CCCCCC/C=C\CCCCCCCCCC(=O)N[C@H]1[C@H](OC[C@H]2O[C@H](OP(=O)([O-])[O-])[C@H](NC(=O)CC(=O)CCCCCCCCCCC)[C@@H](OCCCCCCCCCC)[C@@H]2O)O[C@H](COC)[C@@H](OP(=O)([O-])[O-])[C@@H]1OCC[C@@H](CCCCCCC)OC.[Na+].[Na+].[Na+].[Na+] [LX-9136, Eritoran tetrasodium] .
Result: 296
